Hey, just so you know, these numbers are from the NIST ThermoML archive (doi:10.1016/j.fluid.2014.06.021).

- Protocol summary: activity coefficient (dimensionless); of the first substance listed, at infinite dilution; xn = mol fraction of the nth substance listed
- Protocol conditions: 333.15 K; 101.33 kPa; Liquid; Chromatography; x1 = 0
So basically: activity coefficient at 10 or higher? That is true. Lower than 10? That is false.

Worked examples, 3 compounds total:
>>> print(df.to_string())
                                   compound  discrete_label
0  CCCCCCCCCCC [undecane] + C[n+]1ccn(CCCCS(=O)(=O)O)c1.O=S(=O)([O-])O            true
1  C#CCCCCC [1-heptyne] + C[n+]1ccn(CCCCS(=O)(=O)O)c1.O=S(=O)([O-])C(F)(F)F            true
2  Cc1ccccc1C [1,2-dimethylbenzene] + C[n+]1ccn(CCCCS(=O)(=O)O)c1.O=S(=O)([O-])C(F)(F)F           false

Is reported activity coefficient greater than or equal to 10 here: c1ccsc1 [thiophene] + C[n+]1ccn(CCCCS(=O)(=O)O)c1.O=S(=O)([N-]S(=O)(=O)C(F)(F)F)C(F)(F)F false

Is reported activity coefficient greater than or equal to 10 here: C#CCCCC [1-hexyne] + C[n+]1ccn(CCCCS(=O)(=O)O)c1.O=S(=O)([O-])C(F)(F)F true

Is reported activity coefficient greater than or equal to 10 here: CC(C)OC(C)C [diisopropyl ether] + C[n+]1ccn(CCCCS(=O)(=O)O)c1.O=S(=O)([O-])C(F)(F)F true

Is reported activity coefficient greater than or equal to 10 here: CCC[N+](=O)[O-] [1-nitropropane] + C[n+]1ccn(CCCCS(=O)(=O)O)c1.O=S(=O)([O-])O false

----------
- Protocol summary: activity coefficient (dimensionless); of the first substance listed, at infinite dilution; xn = mol fraction of the nth substance listed
- Protocol conditions: 333.15 K; 101.33 kPa; Liquid; Chromatography; x1 = 0
Quantity measured: activity coefficient
Respond using a number only.

Examples from the recorded data:
>>> df
                                   compound     quantity_measured  endpoint_result
0  C1CCCCCC1 [cycloheptane] + C[n+]1ccn(CCCCS(=O)(=O)O)c1.O=S(=O)([N-]S(=O)(=O)C(F)(F)F)C(F)(F)F  activity coefficient              144
1  Cc1cccc(C)c1 [1,3-dimethylbenzene] + C[n+]1ccn(CCCCS(=O)(=O)O)c1.O=S(=O)([N-]S(=O)(=O)C(F)(F)F)C(F)(F)F  activity coefficient             5.49

Let's switch to this compound now.
Endpoint output: activity coefficient of CCC(C)=O [butanone] + C[n+]1ccn(CCCCS(=O)(=O)O)c1.O=S(=O)([N-]S(=O)(=O)C(F)(F)F)C(F)(F)F . Value? 0.27

----------
- Protocol summary: activity coefficient (dimensionless); of the first substance listed, at infinite dilution; xn = mol fraction of the nth substance listed
- Protocol conditions: 333.15 K; 101.33 kPa; Liquid; Chromatography; x1 = 0
# key: entry, value: activity coefficient
Respond using a number only.

Examples from the recorded data:
>>> df
                                   compound     quantity_measured  endpoint_result
0  CCC(=O)CC [pentan-3-one] + C[n+]1ccn(CCCCS(=O)(=O)O)c1.O=S(=O)([O-])C(F)(F)F  activity coefficient             2.33
1  CCCCCCCCCCCC [dodecane] + C[n+]1ccn(CCCCS(=O)(=O)O)c1.O=S(=O)([O-])O  activity coefficient             1200

Endpoint output: activity coefficient of CCCCCCCCCCCCC [tridecane] + C[n+]1ccn(CCCCS(=O)(=O)O)c1.O=S(=O)([O-])C(F)(F)F . Value? 1550

Endpoint output: activity coefficient of CCC[N+](=O)[O-] [1-nitropropane] + C[n+]1ccn(CCCCS(=O)(=O)O)c1.O=S(=O)([N-]S(=O)(=O)C(F)(F)F)C(F)(F)F . Value? 1.17

Endpoint output: activity coefficient of ClC(Cl)Cl [trichloromethane] + C[n+]1ccn(CCCCS(=O)(=O)O)c1.O=S(=O)([N-]S(=O)(=O)C(F)(F)F)C(F)(F)F . Value? 1.83

Endpoint output: activity coefficient of CC#N [acetonitrile] + C[n+]1ccn(CCCCS(=O)(=O)O)c1.O=S(=O)([O-])O . Value? 1.73

Endpoint output: activity coefficient of Cc1ccccc1C [1,2-dimethylbenzene] + C[n+]1ccn(CCCCS(=O)(=O)O)c1.O=S(=O)([O-])O . Value? 41.3

Endpoint output: activity coefficient of Cc1ccccc1 [toluene] + C[n+]1ccn(CCCCS(=O)(=O)O)c1.O=S(=O)([O-])C(F)(F)F . Value? 5.54

Endpoint output: activity coefficient of CCO [ethanol] + C[n+]1ccn(CCCCS(=O)(=O)O)c1.O=S(=O)([N-]S(=O)(=O)C(F)(F)F)C(F)(F)F . Value? 0.08

Endpoint output: activity coefficient of Cc1ccccc1 [toluene] + C[n+]1ccn(CCCCS(=O)(=O)O)c1.O=S(=O)([O-])O . Value? 26.6

Endpoint output: activity coefficient of CCC(C)=O [butanone] + C[n+]1ccn(CCCCS(=O)(=O)O)c1.O=S(=O)([O-])C(F)(F)F . Value? 1

Endpoint output: activity coefficient of CO [methanol] + C[n+]1ccn(CCCCS(=O)(=O)O)c1.O=S(=O)([N-]S(=O)(=O)C(F)(F)F)C(F)(F)F . Value? 0.08

Endpoint output: activity coefficient of Cc1ccc(C)cc1 [1,4-dimethylbenzene] + C[n+]1ccn(CCCCS(=O)(=O)O)c1.O=S(=O)([O-])C(F)(F)F . Value? 9.86

Endpoint output: activity coefficient of ClC(Cl)Cl [trichloromethane] + C[n+]1ccn(CCCCS(=O)(=O)O)c1.O=S(=O)([O-])O . Value? 6.73

Endpoint output: activity coefficient of c1ccccc1 [benzene] + C[n+]1ccn(CCCCS(=O)(=O)O)c1.O=S(=O)([N-]S(=O)(=O)C(F)(F)F)C(F)(F)F . Value? 2.07

----------
- Protocol summary: activity coefficient (dimensionless); of the first substance listed, at infinite dilution; xn = mol fraction of the nth substance listed
- Protocol conditions: 323.15 K; 101.33 kPa; Liquid; Chromatography; x1 = 0
Group membership follows activity coefficient per the scheme lower level: < 2; middle level: ≥ 2 and < 7; upper level: ≥ 7

Worked examples, 8 compounds total:
In [3]: df
Out[3]:
                                   compound  discrete_label
0  Cc1ccccc1C [1,2-dimethylbenzene] + C[n+]1ccn(CCCCS(=O)(=O)O)c1.O=S(=O)([N-]S(=O)(=O)C(F)(F)F)C(F)(F)F    middle level
1  ClC(Cl)(Cl)Cl [tetrachloromethane] + C[n+]1ccn(CCCCS(=O)(=O)O)c1.O=S(=O)([O-])C(F)(F)F     upper level
2  Cc1ccc(C)cc1 [1,4-dimethylbenzene] + C[n+]1ccn(CCCCS(=O)(=O)O)c1.O=S(=O)([N-]S(=O)(=O)C(F)(F)F)C(F)(F)F    middle level
3  CCOCC [diethyl ether] + C[n+]1ccn(CCCCS(=O)(=O)O)c1.O=S(=O)([O-])C(F)(F)F    middle level
4  CCCC(C)=O [pentan-2-one] + C[n+]1ccn(CCCCS(=O)(=O)O)c1.O=S(=O)([O-])C(F)(F)F    middle level
5  CCC(C)=O [butanone] + C[n+]1ccn(CCCCS(=O)(=O)O)c1.O=S(=O)([O-])O    middle level
6  ClC(Cl)Cl [trichloromethane] + C[n+]1ccn(CCCCS(=O)(=O)O)c1.O=S(=O)([N-]S(=O)(=O)C(F)(F)F)C(F)(F)F     lower level
7  Cc1ccccc1 [toluene] + C[n+]1ccn(CCCCS(=O)(=O)O)c1.O=S(=O)([N-]S(=O)(=O)C(F)(F)F)C(F)(F)F    middle level

Kindly state the category for this compound: c1ccsc1 [thiophene] + C[n+]1ccn(CCCCS(=O)(=O)O)c1.O=S(=O)([O-])C(F)(F)F middle level

Kindly state the category for this compound: ClCCl [dichloromethane] + C[n+]1ccn(CCCCS(=O)(=O)O)c1.O=S(=O)([O-])O middle level

Kindly state the category for this compound: Cc1ccc(C)cc1 [1,4-dimethylbenzene] + C[n+]1ccn(CCCCS(=O)(=O)O)c1.O=S(=O)([O-])O upper level

Kindly state the category for this compound: CCCCCCCCCCCC [dodecane] + C[n+]1ccn(CCCCS(=O)(=O)O)c1.O=S(=O)([N-]S(=O)(=O)C(F)(F)F)C(F)(F)F upper level

Kindly state the category for this compound: ClCCl [dichloromethane] + C[n+]1ccn(CCCCS(=O)(=O)O)c1.O=S(=O)([N-]S(=O)(=O)C(F)(F)F)C(F)(F)F lower level

Kindly state the category for this compound: c1ccsc1 [thiophene] + C[n+]1ccn(CCCCS(=O)(=O)O)c1.O=S(=O)([O-])O middle level
